Assay: qHTS of pediatric cancer cell lines to identify multiple opportunities for drug repurposing: Primary screen for LAN-5 cells (AID 1347100)
Settings: LAN-5 neuroblastoma viability, CellTiter-Glo luminescence, 48 h; series mostly up to 46 µM
Results filed as inconclusive are left out. The source made the active and inactive calls. Calls follow the shape of the dose curve; as a rule, active = well fitted cell-killing curve with a large enough effect; inconclusive = small, poorly fitted or top-dose-only effect; inactive = no such curve, though single readings can be large or run the other way.
Your reply should match one of these outcome classes. active, inactive

Kindly provide the recorded test outcome for the following compound: Nc1ccc(S(=O)(=O)Nc2ncccn2)cc1
inactive

Quick one: CC(O)C1C(=O)N2C(C(=O)O)=C(SC3CNC(C(=O)N(C)C)C3)C(C)C12 (stereo not given)
inactive

Quick one: CNC(=O)CN1CCC(Oc2cc3c(Nc4cccc(Cl)c4F)ncnc3cc2OC)CC1
active

Quick one: O=c1[nH]c(=O)n(C2CCCO2)cc1F (stereo not given)
inactive

Quick one: C[C@]1(CO)CN(c2cc(C(=O)Nc3ccc4c(c3)-c3c(c(C(N)=O)nn3-c3ccc(F)cc3)CC4)c(Cl)cn2)C[C@@]1(C)CO
active

Quick one: Cc1cn2cc(C(=O)N(C)CCO)cc(N[C@@H]3CCOc4cccc(C)c43)c2n1
inactive

Quick one: CN1c2cc(O)c(N=NC(N)=O)cc2CC1S(=O)(=O)O (stereo not given)
inactive

Quick one: COC(=O)Nc1nc2ccc(C(=O)c3ccc(F)cc3)cc2[nH]1
active

Quick one: CCN1CCN(CC(=O)Nc2ccc(-c3cccc4c(=O)cc(N5CCOCC5)oc34)c3sc4ccccc4c23)CC1
active

Quick one: COc1cc(OC2CCN(C)CC2)ccc1Nc1ncc2c(n1)n(C1CCCC1)c(=O)n2C
active
